Attribution: paper PMC7819943

- assayedTarget: OsWRKY34 (Oryza sativa, UniProt Q0JBA9 1-250)
- Sequence (Q0JBA9 entry or part of it): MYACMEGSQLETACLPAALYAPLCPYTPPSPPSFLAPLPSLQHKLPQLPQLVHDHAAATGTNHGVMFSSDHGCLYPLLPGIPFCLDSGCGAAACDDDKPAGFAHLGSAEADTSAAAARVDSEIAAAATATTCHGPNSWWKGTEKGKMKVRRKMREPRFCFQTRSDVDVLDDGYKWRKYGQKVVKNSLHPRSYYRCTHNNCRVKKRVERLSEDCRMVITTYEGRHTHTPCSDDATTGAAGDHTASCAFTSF
- test: protein-binding microarray (RPBM); PBS, 2% BSA, 51.3 ng/ul salmon testes DNA, 50 uM zinc acetate, 200 nM TF, 25 C, 1 h; high values mean tight binding
- conditionDescription: protein: recombinant; tags: N-terminal polyhistidine and DsRed monomer fusion (pET32a); label: CyDye5-dUTP incorporated in the synthesized complementary strand; 3' TTTTT single-stranded linker to array surface; dsDNA, one strand shown
Whole data set: some 68,000 sequences, median “fluorescence intensity (a.u.)” near 9,100, cut for the highest 2% near 16,000. Shown is part of a subset that was picked to be rich in the highest values.

| sequenceRecord | binding signal |
| --- | --- |
| TCTCCAGCTTTTTTCTGTTCCTCTGGTCTTGATTCTTGAACGGAGTCACCTAGTGCAG | 18200 fluorescence intensity (a.u.) |
| CAGTCTGTCTTGGTCTCTTTGTTCAGTCATGGTCTCTCTTCGGAGTCACCTAGTGCAG | 19000 fluorescence intensity (a.u.) |
| ATACCTCTTGTGTATTAATTAAACATTAGTGTTTCTGTTCCGGAGTCACCTAGTGCAG | 48000 fluorescence intensity (a.u.) |
| AAACCATTTTTTTTATCTATTATCCTTTGACTGTTTAATTCGGAGTCACCTAGTGCAG | 10500 fluorescence intensity (a.u.) |
| GTGCAGTTGTCTTCTTCTGTTCTTTGGTCATATAGTAGTTCGGAGTCACCTAGTGCAG | 14900 fluorescence intensity (a.u.) |
